log10 intrinsic clearance, rat liver microsomes listing for selected molecules.
Please interpret these as log10 of intrinsic clearance, rat liver microsomes where intrinsic clearance, rat liver microsomes is in mL/min/kg.

Previously resolved entries follow.
[[record]]
entry_smiles = "Cc1c(C(=O)NCc2cnc(N(C)C)n2C)sc2ccccc12"
measured = 2.50

[[record]]
entry_smiles = "COc1cc(CN[C@@H]2CCC[C@H]2Cc2cc(C)no2)ccc1OC(C)C"
measured = 3.38

[[record]]
entry_smiles = "CCc1nc2c(C)cc(N3CCN(CC(=O)N4CC(O)C4)CC3)cn2c1N(C)c1nc(-c2ccc(F)cc2)c(C#N)s1"
measured = 2.75

[[record]]
entry_smiles = "OCCn1cc(-c2ccc3c(c2)CC/C3=N\\O)c(-c2ccncc2)n1"
measured = 2.09


Okay, next one:
Entry CCS(=O)(=O)N1CCN(c2ccc(Nc3ncc(C(N)=O)c(NC4CC4)n3)cc2)CC1 , log10 intrinsic clearance, rat liver microsomes reported as 1.56

---

intrinsic clearance, rat liver microsomes listing for selected compounds.
Value expressed in mL/min/kg; do not type the unit.

[[record]]
compound = "COC(=O)[C@@H]1Cc2ncn(Cc3ccccc3)c2CN1C(C)=O"
unit_abbrev = "mL/min/kg"
measured = 97.3

[[record]]
compound = "Cc1nc(CN2C(=O)CN(C3CCCC3)C2=O)nc2ccccc12"
unit_abbrev = "mL/min/kg"
measured = 823

[[record]]
compound = "Cc1nnc(CN(C)Cc2cnn(C)c2C)s1"
unit_abbrev = "mL/min/kg"
measured = 20

[[record]]
compound = "CCC(=O)NCc1cc(C2CC2)n(C2CCCC2)n1"
unit_abbrev = "mL/min/kg"
measured = 218

[[record]]
compound = "C=CC(=O)Nc1cccc(Nc2nc(Nc3ccc(Oc4ccnc(C(=O)NC)c4)cc3)ncc2F)c1"
unit_abbrev = "mL/min/kg"
measured = 322


Entry CCOC(=O)Cc1c(C)[nH]c2c(-c3ccccc3)cnn2c1=O , intrinsic clearance, rat liver microsomes reported as 89.6

Entry O=C(Cn1nc(Cc2ccccc2)c2ccccc2c1=O)NCCc1c[nH]cn1 , intrinsic clearance, rat liver microsomes reported as 597

Entry Cc1ccccc1-n1c(CC2CCN(C(=O)C3CC3)CC2)n[nH]c1=O , intrinsic clearance, rat liver microsomes reported as 26.8

Entry CC(C)(C)CCCNC(=O)N1CCN(Cc2ccon2)CC1 , intrinsic clearance, rat liver microsomes reported as 623

Entry O=C(c1cccc(N2CCNC2=O)c1)N1CCc2ccccc2C1 , intrinsic clearance, rat liver microsomes reported as 322

Entry CCN1CCC(CCNc2ncc(C)c(N(C)C)n2)CC1 , intrinsic clearance, rat liver microsomes reported as 323

Entry Cc1cc(C)c2c(C(=O)N3CC4(CNC(=O)N4)C3)cc(C)nc2c1 , intrinsic clearance, rat liver microsomes reported as 30.7

Entry CC(=O)c1ccccc1-c1cccc(C(=O)NCCCN2CCCC2)c1 , intrinsic clearance, rat liver microsomes reported as 742

---

MDR1-MDCK efflux ratio listing for selected compounds.
Form: value (number only, do not type unit).

Previously resolved entries follow.
[[record]]
compound = "Cc1ncccc1NC(=O)OC(C)(C)C"
measured = 0.755

[[record]]
compound = "CCc1[nH]nc(NC2CCC(C(=O)OC)CC2)c1C (stereo unspecified)"
measured = 0.826

[[record]]
compound = "CNC(=O)c1cnc(/C=C/c2csc(-c3cccs3)n2)s1"
measured = 0.521

[[record]]
compound = "Cc1ccc(=O)n(CCOc2ccc(Cl)c(F)c2)n1"
measured = 0.684

[[record]]
compound = "[2H]c1nc(C)nc([2H])c1-c1cc(NC[C@@H](C)c2cccc3c(C(=O)NC)ccnc23)ncn1"
measured = 106


Entry CC1CCN(Cc2ccc(NC(=O)c3ccccn3)cc2)CC1 , MDR1-MDCK efflux ratio reported as 0.675
